- System: HepG2
- methodNotes: Antiproliferative activity against human HepG2 cells after 48 hrs by MTT assay
- Format: functional, cell-based
- details: HepG2, 48 h
# note: exactly 40 µM is not below, so it is criterion not met; use criterion met for IC50 strictly under it

> print(dat)
                           structureassmiles  testedon    classassignment
 1  CCOC(=O)CNc1ncc([N+](=O)[O-])c(N(CC(=O)OCC)Cc2ccccc2)n1     HepG2  criterion not met
 2  CCOC(=O)CN(Cc1ccccc1)c1nc(Nc2ccccc2)ncc1[N+](=O)[O-]     HepG2  criterion not met
 3  CCOC(=O)CN(Cc1ccccc1)c1nc(NCCc2ccccc2)ncc1[N+](=O)[O-]     HepG2      criterion met
 4  CCOC(=O)CN(Cc1ccccc1)c1nc(Nc2cc(OC)c(OC)c(OC)c2)ncc1[N+](=O)[O-]     HepG2      criterion met
 5  CCOC(=O)CNc1nc(NCc2ccccc2)ncc1[N+](=O)[O-]     HepG2  criterion not met
 6  COC(=O)CN(C)c1nc(Nc2ccccc2)ncc1[N+](=O)[O-]     HepG2  criterion not met
 7  COC(=O)CN(C)c1nc(NC2CCN(S(C)(=O)=O)CC2)ncc1[N+](=O)[O-]     HepG2  criterion not met
 8  COC(=O)CN(C)c1nc(Nc2cc(OC)c(OC)c(OC)c2)ncc1[N+](=O)[O-]     HepG2      criterion met
 9  CCOC(=O)CNc1nc(Nc2ccc(Cl)cc2)ncc1[N+](=O)[O-]     HepG2  criterion not met
10  CCOC(=O)CNc1nc(Nc2ccc(OC)cc2)ncc1[N+](=O)[O-]     HepG2  criterion not met
11  CCOC(=O)CN(Cc1ccccc1)c1nc(Nc2cccc(OC)c2)ncc1[N+](=O)[O-]     HepG2      criterion met
12  COC(=O)CN(C)c1nc(Nc2ccc(Cl)cc2)ncc1[N+](=O)[O-]     HepG2  criterion not met
13  CCOC(=O)CN(Cc1ccccc1)c1nc(Nc2ccc(Cl)cc2)ncc1[N+](=O)[O-]     HepG2      criterion met
14  CCOC(=O)CN(Cc1ccccc1)c1nc(NCc2ccccc2)ncc1[N+](=O)[O-]     HepG2      criterion met
15  COC(=O)CN(C)c1nc(NCc2ccccc2)ncc1[N+](=O)[O-]     HepG2  criterion not met
16  CCOC(=O)CNc1nc(NC2CCN(S(C)(=O)=O)CC2)ncc1[N+](=O)[O-]     HepG2  criterion not met
17  CCOC(=O)CNc1nc(Nc2ccccc2)ncc1[N+](=O)[O-]     HepG2  criterion not met
18  COC(=O)CN(C)c1nc(Nc2cccc(OC)c2)ncc1[N+](=O)[O-]     HepG2  criterion not met
19  CCOC(=O)CNc1nc(Nc2cccc(OC)c2)ncc1[N+](=O)[O-]     HepG2  criterion not met
20  CCOC(=O)CN(Cc1ccccc1)c1nc(NC2CCN(S(C)(=O)=O)CC2)ncc1[N+](=O)[O-]     HepG2  criterion not met
21  CCOC(=O)CN(Cc1ccccc1)c1nc(NCc2cccc(OC)c2)ncc1[N+](=O)[O-]     HepG2      criterion met
22  COC(=O)CN(C)c1nc(NCCc2ccccc2)ncc1[N+](=O)[O-]     HepG2  criterion not met
23  CCOC(=O)CNc1nc(NCCc2ccccc2)ncc1[N+](=O)[O-]     HepG2  criterion not met

Where do the numbers come from? From ChEMBL document CHEMBL3822407.
